- STUDY SYSTEM: Serine/threonine-protein kinase ATR (Homo sapiens) (UniProt Q13535)
- Sequence (Q13535 whole entry, looked up): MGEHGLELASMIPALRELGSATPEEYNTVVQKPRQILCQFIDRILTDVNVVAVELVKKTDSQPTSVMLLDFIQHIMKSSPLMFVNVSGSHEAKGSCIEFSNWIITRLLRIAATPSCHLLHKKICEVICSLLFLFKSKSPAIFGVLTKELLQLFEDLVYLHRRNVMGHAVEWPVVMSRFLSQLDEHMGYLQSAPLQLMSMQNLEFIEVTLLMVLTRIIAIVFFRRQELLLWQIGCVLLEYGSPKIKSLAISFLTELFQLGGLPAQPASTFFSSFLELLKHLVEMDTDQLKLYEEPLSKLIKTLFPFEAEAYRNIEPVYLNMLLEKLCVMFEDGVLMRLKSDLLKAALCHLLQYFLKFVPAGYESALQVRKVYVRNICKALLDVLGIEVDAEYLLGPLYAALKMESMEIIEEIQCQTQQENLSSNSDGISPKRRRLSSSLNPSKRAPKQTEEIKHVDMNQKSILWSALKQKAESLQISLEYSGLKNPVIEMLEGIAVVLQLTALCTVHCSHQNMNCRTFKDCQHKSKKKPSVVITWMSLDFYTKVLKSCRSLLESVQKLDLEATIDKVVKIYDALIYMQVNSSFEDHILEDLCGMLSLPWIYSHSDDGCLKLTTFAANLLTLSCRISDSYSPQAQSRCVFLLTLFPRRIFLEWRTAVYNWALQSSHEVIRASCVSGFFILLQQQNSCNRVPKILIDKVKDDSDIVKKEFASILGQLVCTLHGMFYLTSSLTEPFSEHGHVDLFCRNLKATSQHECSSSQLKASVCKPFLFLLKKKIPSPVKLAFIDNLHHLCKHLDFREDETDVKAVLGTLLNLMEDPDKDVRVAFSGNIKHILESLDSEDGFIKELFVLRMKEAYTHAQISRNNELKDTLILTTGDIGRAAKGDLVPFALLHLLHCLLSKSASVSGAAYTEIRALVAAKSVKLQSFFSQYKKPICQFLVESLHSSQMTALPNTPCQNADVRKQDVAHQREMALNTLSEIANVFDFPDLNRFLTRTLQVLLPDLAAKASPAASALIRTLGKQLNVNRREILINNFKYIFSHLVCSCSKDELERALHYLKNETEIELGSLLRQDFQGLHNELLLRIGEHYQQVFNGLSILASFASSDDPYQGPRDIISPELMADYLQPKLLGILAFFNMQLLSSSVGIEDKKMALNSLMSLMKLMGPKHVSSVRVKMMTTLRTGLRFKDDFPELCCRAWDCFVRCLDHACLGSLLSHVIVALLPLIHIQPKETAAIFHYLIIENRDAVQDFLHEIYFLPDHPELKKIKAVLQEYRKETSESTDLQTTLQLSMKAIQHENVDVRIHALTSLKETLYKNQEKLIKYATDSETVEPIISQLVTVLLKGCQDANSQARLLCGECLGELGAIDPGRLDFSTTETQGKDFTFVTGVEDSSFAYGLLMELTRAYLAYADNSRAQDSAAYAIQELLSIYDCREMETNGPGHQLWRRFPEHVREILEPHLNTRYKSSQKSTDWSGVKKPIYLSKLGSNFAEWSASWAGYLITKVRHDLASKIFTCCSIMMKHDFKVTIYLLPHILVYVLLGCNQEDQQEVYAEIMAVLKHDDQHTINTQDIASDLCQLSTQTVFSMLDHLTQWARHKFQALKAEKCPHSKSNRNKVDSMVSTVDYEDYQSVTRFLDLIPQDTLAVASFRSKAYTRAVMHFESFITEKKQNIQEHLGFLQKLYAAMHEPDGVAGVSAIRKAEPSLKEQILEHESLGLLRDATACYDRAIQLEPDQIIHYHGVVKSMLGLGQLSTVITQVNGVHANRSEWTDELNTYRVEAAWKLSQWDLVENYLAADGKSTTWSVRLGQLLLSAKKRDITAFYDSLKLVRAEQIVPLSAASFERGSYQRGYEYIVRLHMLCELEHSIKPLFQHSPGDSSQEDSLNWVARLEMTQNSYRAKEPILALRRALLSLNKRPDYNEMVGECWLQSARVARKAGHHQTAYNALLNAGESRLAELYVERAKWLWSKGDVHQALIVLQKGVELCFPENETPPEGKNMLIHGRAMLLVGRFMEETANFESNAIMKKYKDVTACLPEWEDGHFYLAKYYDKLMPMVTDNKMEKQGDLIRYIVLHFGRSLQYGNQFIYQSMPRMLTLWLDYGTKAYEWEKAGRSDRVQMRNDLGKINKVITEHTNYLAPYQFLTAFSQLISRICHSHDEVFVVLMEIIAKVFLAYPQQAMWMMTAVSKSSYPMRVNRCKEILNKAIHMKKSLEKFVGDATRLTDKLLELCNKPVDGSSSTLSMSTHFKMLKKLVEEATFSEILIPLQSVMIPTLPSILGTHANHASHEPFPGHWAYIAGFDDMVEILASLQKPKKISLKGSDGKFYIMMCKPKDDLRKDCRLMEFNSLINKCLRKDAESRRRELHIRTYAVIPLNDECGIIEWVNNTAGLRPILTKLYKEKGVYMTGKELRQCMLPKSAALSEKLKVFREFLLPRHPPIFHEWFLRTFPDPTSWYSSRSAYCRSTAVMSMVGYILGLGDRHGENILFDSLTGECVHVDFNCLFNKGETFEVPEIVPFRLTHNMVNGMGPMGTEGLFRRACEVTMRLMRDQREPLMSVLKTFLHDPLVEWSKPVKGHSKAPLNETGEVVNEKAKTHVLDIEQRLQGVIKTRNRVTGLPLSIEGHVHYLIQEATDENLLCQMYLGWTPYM
- ASSAY NOTES: Inhibition of ATR in human U2OS cells assessed as reduction in hydroxyurea-induced Chk-1 phosphorylation at Ser345 residue by measuring ratio of GAPDH level to phosphorylated Chk-1 level at 10 uM preincubated for 1 hr followed by hydroxyurea challenge measured after 2 hrs by Western blot analysis
- Type: cell-based
I'd appreciate it if you marked entries t when Ratio is lower than 40 and f when it is not.

**Q:** Take the compound CN=S(C)(=O)c1ccc(-c2cnc(N)c(C(=O)Nc3ccccc3)n2)cc1 (stereo not given) and say whether its Ratio is less than 40.
**A:** t

**Q:** Given CS(=O)(=O)c1ccc(-c2cnc(N)c(C(=O)Nc3ccccc3)n2)cc1 , is recorded Ratio strictly lower than 40?
**A:** t

**Q:** Say whether its Ratio is strictly beneath 40. Entry: CS(=N)(=O)c1ccc(-c2cnc(N)c(C(=O)Nc3ccccc3)n2)cc1 (stereo not given)
**A:** t

**Q:** Criterion: Ratio strictly below 40. Is it met by C/S(=N\C#N)c1ccc(-c2cnc(N)c(C(=O)Nc3ccccc3)n2)cc1 (stereo not given) ?
**A:** t

**Q:** In plain terms, does CS(=O)(=NC#N)c1ccc(-c2cnc(N)c(C(=O)Nc3ccccc3)n2)cc1 (stereo not given) come in under 40 for Ratio?
**A:** f

====

- STUDY SYSTEM: Serine-protein kinase ATM (Homo sapiens) (UniProt Q13315)
- ASSAY NOTES: Inhibition of ATM in human U2OS cells assessed as reduction in hydroxyurea-induced Chk-2 phosphorylation at Thr68 residue at 10 uM preincubated for 1 hr followed by hydroxyurea challenge measured after 1 hr by Western blot analysis
- Assay type: cell-based
Calls of active or inactive are those of the source. No cut-off for these calls is given here.
MEASURED METRIC: inhibition

CS(=N)(=O)c1ccc(-c2cnc(N)c(C(=O)Nc3ccccc3)n2)cc1 (centres undefined)	inactive
CS(=O)(=NC#N)c1ccc(-c2cnc(N)c(C(=O)Nc3ccccc3)n2)cc1 (centres undefined)	inactive
C/S(=N\C#N)c1ccc(-c2cnc(N)c(C(=O)Nc3ccccc3)n2)cc1 (centres undefined)	inactive
CN=S(C)(=O)c1ccc(-c2cnc(N)c(C(=O)Nc3ccccc3)n2)cc1 (centres undefined)	inactive

====

- STUDY SYSTEM: Serine/threonine-protein kinase ATR (Homo sapiens)
- ASSAY NOTES: Inhibition of ATR in human U2OS cells assessed as reduction in hydroxyurea-induced Chk-1 phosphorylation at Ser345 residue by measuring ratio of GAPDH level to phosphorylated Chk-1 level at 3 uM preincubated for 1 hr followed by hydroxyurea challenge measured after 2 hrs by Western blot analysis
- Format: cell-based
Please note: Y applies when Ratio is 30 or greater, and N applies otherwise.

**Q:** hey, is Ratio for this one >= 30? CS(=N)(=O)c1ccc(-c2cnc(N)c(C(=O)Nc3ccccc3)n2)cc1 (stereo not given)
**A:** N

**Q:** State whether the measured Ratio reaches 30, counting equality as reaching it, for CN=S(C)(=O)c1ccc(-c2cnc(N)c(C(=O)Nc3ccccc3)n2)cc1 (stereo not given)
**A:** Y

**Q:** Is Ratio for C/S(=N\C#N)c1ccc(-c2cnc(N)c(C(=O)Nc3ccccc3)n2)cc1 (stereo not given) at or above 30?
**A:** Y

**Q:** API: above_or_equal(metric=Ratio, cutoff=30) for item CS(=O)(=O)c1ccc(-c2cnc(N)c(C(=O)Nc3ccccc3)n2)cc1
**A:** N

**Q:** Does the compound CS(=O)(=NC#N)c1ccc(-c2cnc(N)c(C(=O)Nc3ccccc3)n2)cc1 (stereo not given) have recorded Ratio that is 30 or more?
**A:** Y
